System: HOP-92
method.notes: NCI tumour cell line growth inhibition, 48 h
The source made the active and inactive calls. No stated cut-off is given here; in the data, active = GI50 up to about 1.1 µM and inactive = higher.
test.readout: GI50

Input line: Give recorded GI50. Nc1ncnc2c1nnn2C1C=C(CO)C(O)C1O (stereo unspecified)
Output line: 14.3 µM (inactive)

Input line: Indicate the recorded GI50 value for this compound: COc1ccc(C2=CC(C(C)=C(C(N)=O)C(N)=O)C=C(c3ccc(Br)cc3)C2)c(OC)c1 (stereo unspecified)
Output line: 31.8 µM (inactive)

Input line: Respond only with GI50 recorded for `O=C(/C=C1\C[C@H]2C=Nc3ccccc3C(=O)N2C1)NCCCCNC(=O)/C=C1\C[C@H]2C=Nc3ccccc3C(=O)N2C1`
Output line: 7.93 µM (inactive)

Input line: Find the measured GI50 of CC(=O)OC1CCn2nnc(COC(=O)NC(C)C)c21 (stereo unspecified) and report it.
Output line: > 100 µM (inactive)

Input line: Answer with reported GI50 of `CCOC(=O)C1=NC(c2ccccc2)(c2ccccc2)OC1=C(Cl)Cl`
Output line: 35.4 µM (inactive)

Input line: Consider the compound `COc1ccc(C#Cn2nnc3ccccc32)cc1` and give its recorded GI50.
Output line: > 100 µM (inactive)

* * *

Kindly state GI50 for each of the entries shown.
Test system: HCT-116
method.notes: NCI tumour cell line growth inhibition, 48 h
The source made the active and inactive calls. No stated cut-off is given here; in the data, active = GI50 up to about 1.1 µM and inactive = higher.

Input line: Provide GI50 value for the following compound: COc1ccccc1-c1csc(CCC(N)C(=O)O)n1 (centres undefined)
Output line: > 100 µM (inactive)

Input line: Determine from records and report GI50 for CC(=O)Oc1cc2c(cc1OC(C)=O)OCC(c1ccccc1)C2 (centres undefined)
Output line: 27.6 µM (inactive)

Input line: Quote GI50 reported for `O=C(/C=C1\C[C@H]2C=Nc3ccccc3C(=O)N2C1)NCCCCNC(=O)/C=C1\C[C@H]2C=Nc3ccccc3C(=O)N2C1` please.
Output line: 12.3 µM (inactive)

Input line: Give me measured GI50, please, for this compound: `COc1ccc(-n2cnc3c(N)nc(N)nc32)cc1`
Output line: > 100 µM (inactive)

Input line: Determine from records and report GI50 for `COCOc1cc(OC)ccc1C=O`
Output line: 33.7 µM (inactive)

Input line: Supply GI50 value. Item: `Cc1sc2nc3n(c(=O)c2c1C)N=C(c1ccc([N+](=O)[O-])cc1)CS3`
Output line: > 100 µM (inactive)

Input line: Answer with the recorded GI50 of `CC(C)(C)N1Cc2ccccc2/C(=C/Sc2ccccc2)C1=O` only.
Output line: 7.03 µM (inactive)

Input line: Return the recorded GI50 value; entry: `OC[C@@H](O)[C@H](O)[C@H](O)[C@@H](O)C1SCCCS1`
Output line: > 100 µM (inactive)

Input line: Name the recorded GI50 of the compound listed here: CC(=O)Nc1cc2c(s1)CCC1CC(=O)NN=C21 (centres undefined)
Output line: > 100 µM (inactive)

Input line: For the compound `CCc1c(CNC2=NCCN2)c(CC)c(CNC2=NCCN2)c(CC)c1CNC1=NCCN1` , give its reported GI50.
Output line: > 100 µM (inactive)

Input line: Give me measured GI50, please, for this compound: `N#CC(C#N)C(c1ccccc1)c1ccccc1`
Output line: > 100 µM (inactive)

Input line: Supply GI50 value. Item: `O=C(Nn1cnn2c(=O)c3ccccc3nc2c1=O)c1ccccc1`
Output line: > 100 µM (inactive)

Input line: Answer with the recorded GI50 of `CC(=O)Nc1ccc(Cl)c(Cl)c1` only.
Output line: > 100 µM (inactive)

Input line: Could you please provide reported GI50 for `O=C(Nc1ccccc1F)c1c(O)nc2sccn2c1=O` ? Thanks!
Output line: > 10 µM (inactive)

Input line: Report measured GI50; entry is COc1cc(C2c3cc4c(cc3[C@@H](Nc3ccc(C(=O)O)cc3)C3COC(=O)[C@H]23)OCO4)cc(OC)c1O (some centres undefined)
Output line: 14.5 µM (inactive)

Input line: Please give measured GI50 of the following entry: `CN(C)c1ccc(/N=N/c2ccc3[nH]cnc3c2)cc1`
Output line: 18 µM (inactive)

Input line: Dear colleague, please send me the reported GI50 for `COC(=O)/C(C)=N/N=C(\S)SC` when you can.
Output line: 31.6 µM (inactive)

Input line: # return recorded GI50 for input `O=S(O)CCCSSc1ccccc1`
Output line: 37.7 µM (inactive)

Input line: Report GI50, nothing else, for this compound: CCOc1cn(C2CC(O)C(CO)O2)c(=O)[nH]c1=O (centres undefined)
Output line: > 100 µM (inactive)

Input line: # return recorded GI50 for entry NC1=NN(c2ccccc2)C(=O)C1/C(=N\NC(=O)c1cc2ccccc2cc1O)C(=O)Nc1ccc(Cl)c(Cl)c1 (centres undefined)
Output line: 35.2 µM (inactive)

Input line: Query GI50 for `Cc1ccc(-c2cc(C(F)(F)F)nn2-c2ccc(S(N)(=O)=O)cc2)cc1`
Output line: 55 µM (inactive)

Input line: Recall and state the measured GI50 for `CC(C)(C)C(=O)CC(=O)C(F)(F)C(F)(F)C(F)(F)F` .
Output line: 18.3 µM (inactive)

Input line: Give the value of GI50 reported for the following: `COc1c2c(cc3nc4ccccc4nc13)CC[C@H](NC(C)=O)c1cc(=O)c(SC)ccc1-2`
Output line: 0.46 µM (active)

Input line: Please give measured GI50 of the following entry: `c1ccc(/C(=N\Nc2nc3ccccc3s2)c2ccccn2)cc1`
Output line: 1.88 µM (inactive)

Input line: Output measured GI50 for this item: CC(C)CC(NC(O)[BH2-][N+](C)(C)C)C(=O)NC(Cc1ccccc1)C(=O)N[C@H]1c2ccsc2/C(=N/O)[C@H]1O (some centres undefined)
Output line: > 100 µM (inactive)

Input line: Write down GI50 measured for item COc1cc(C2C(Cl)C(=O)N2NC(=O)c2ccc(N)cc2)cc(Br)c1O (centres undefined)
Output line: 10.4 µM (inactive)

Input line: Tell me its GI50 given `c1csc(-c2cscc2-c2ccsc2)c1` as the entry.
Output line: 41.2 µM (inactive)

Input line: Supply GI50 value. Item: `O=C1C(NCCF)=C(Cl)C(=O)c2ncccc21`
Output line: 1.18 µM (inactive)

Input line: Give the reported value of GI50 for this record: COCC(/N=C\N1CCCc2ccccc2[C@@H]1CCCCl)C(C)(C)C (some centres undefined)
Output line: 1.23 µM (inactive)

Input line: Indicate the recorded GI50 value for this compound: `Cc1cc(NCCCCCCNc2cc(C)nc3ccc(Cl)cc23)c2cc(Cl)ccc2n1`
Output line: 14.7 µM (inactive)

Input line: Read the entry COc1cc(C2c3cc4c(cc3CC3COC(=O)N32)OCO4)cc(OC)c1OC (centres undefined) and write its reported GI50.
Output line: 2.72 µM (inactive)

Input line: Complete the entry with GI50 for `C[C@H](C(=O)C12CC3CC(CC(C3)C1)C2)[C@H](O)c1ccccc1`
Output line: 16.1 µM (inactive)

Input line: Fill in reported GI50 for this entry: `CCOC(=O)C(=O)Nc1ccccc1C(F)(F)F`
Output line: > 100 µM (inactive)

Input line: Query GI50 for `Cc1cc(-c2[nH]c(C(=O)O)cc2I)on1`
Output line: 42 µM (inactive)

Input line: Check the records and state GI50 for `CN1CCN(Cc2cc3c(nn2)-c2ccccc2C3=O)CC1`
Output line: 30.4 µM (inactive)

Input line: // fetch GI50 given entry CC(C)=C1CCC(CN2CCCC2)C1=O (centres undefined)
Output line: 17.7 µM (inactive)

Input line: Quickly give me recorded GI50 for O=C1C(=Cc2ccco2)C(=O)C2CCCCC12 (centres undefined)
Output line: > 100 µM (inactive)

Input line: State, in one line, measured GI50 of `CC(=O)c1cccc(N2COC(C)(C)c3nc4ccccc4n3C2)c1`
Output line: > 100 µM (inactive)

Input line: Answer with reported GI50 of CC(C(=O)N1C(=O)N(C(=O)C(C)C(O)c2ccccc2)C(c2ccccc2)C1c1ccccc1)C(O)c1ccccc1 (centres undefined)
Output line: 6.21 µM (inactive)

Input line: Name the recorded GI50 of the compound listed here: CC(=O)NC1(C)C(C)C2CC1C(C)C2(C)C (centres undefined)
Output line: > 100 µM (inactive)

Input line: Query GI50 for `BrCCC[P+](c1ccccc1)(c1ccccc1)c1ccccc1`
Output line: 1.64 µM (inactive)

Input line: Find the measured GI50 of `[N-]=[N+]=Nc1c(C=O)c(=O)n(-c2ccccc2)c2ccccc12` and report it.
Output line: > 10 µM (inactive)

Input line: Supply reported GI50 belonging to this compound: CCOC(=O)C1S/C(=N\c2ccc(OC)c(OC)c2)N=C1C (centres undefined)
Output line: 32.7 µM (inactive)

Input line: Provide measured GI50 value, entry: `CC1(C)CC[C@]2(C(=O)O)CC[C@]3(C)C(=CC[C@@H]4[C@@]5(C)C[C@H](O)[C@H](O)[C@@](C)(CO)C5=CC[C@]43C)[C@@H]2C1`
Output line: 32.5 µM (inactive)
